The values you see were collected from patent US9975888B2.

TARGET OR SYSTEM: UniProt P08684
Sequence (P08684 2-503): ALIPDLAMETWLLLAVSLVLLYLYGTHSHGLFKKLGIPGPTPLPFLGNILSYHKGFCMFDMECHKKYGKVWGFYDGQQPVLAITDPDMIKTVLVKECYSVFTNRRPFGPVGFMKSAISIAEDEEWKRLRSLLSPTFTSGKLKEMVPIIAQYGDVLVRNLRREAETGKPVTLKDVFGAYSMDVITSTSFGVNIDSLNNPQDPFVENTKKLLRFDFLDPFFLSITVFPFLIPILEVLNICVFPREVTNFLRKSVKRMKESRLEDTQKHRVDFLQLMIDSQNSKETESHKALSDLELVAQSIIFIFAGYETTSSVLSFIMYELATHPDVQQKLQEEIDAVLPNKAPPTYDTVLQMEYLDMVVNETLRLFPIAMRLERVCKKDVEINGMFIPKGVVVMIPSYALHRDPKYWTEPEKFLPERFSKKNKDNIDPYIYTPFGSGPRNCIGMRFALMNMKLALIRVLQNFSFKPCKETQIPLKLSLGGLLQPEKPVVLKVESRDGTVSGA
MEASUREMENT NOTES: IC50 vs CYP3A by inhibition of lopinavir metabolism in human liver microsomes
Assay type: biochemical
Parameters: 0.01 mg/mL protein human liver microsomes (BD Gentest); tissue BD Gentest; host or cells: human liver microsomes
ASSAY CONTEXT: 1.5 μM lopinavir, 0.01 mg/mL human liver microsomes, 8 min at 37° C.; read-out: CYP IC50 (nM) 3A4 (LPV)
The label is true (1) for IC50 below 2 nM and false (0) for IC50 equal to or exceeding 2 nM.

O=S(=O)(c1cnc(N2CCN3C[C@H](O)C[C@H]3C2)s1)N1CCCC1c1ccccc1-c1cncn1CCc1ccc(F)cc1 (single isomer, unassigned) [Compound 22b]: false (0)
O=S(=O)(c1ccc(N2CCOCC2)nc1)N1CCc2c(cccc2-c2cncn2CCc2ccc(F)cc2)C1 [Compound 60]: true (1)
COc1ccc(OC)c(S(=O)(=O)N2CCCC2c2cccc(-c3cncn3CCc3ccc(F)cc3)c2)c1 (single isomer, unassigned) [Compound 53b]: false (0)
O=C(Oc1ccc(Cl)cc1)N1CCCC1c1ccccc1-c1cncn1CCc1ccc(F)cc1 (stereo not drawn) [Compound 36]: false (0)
O=S(=O)(c1ccc(N2CCN(CCO)CC2)nc1)N1CCCC1c1ccccc1-c1cncn1CCc1ccc(F)cc1 (single isomer, unassigned) [Compound 35b]: true (1)
CC(C)NC(=O)N1CCCC1c1ccccc1-c1cncn1CCc1ccc(F)cc1 (single isomer, unassigned) [Compound 46a]: false (0)
